Test: in vivo
Conditions: both, Sprague-Dawley, mouse, in vivo, iv, 50 mg/kg
property label: MRT last (min)
Answers are plain numbers, in min.

What MRT last value was documented for this molecule, O=c1c(-c2ccc(O)cc2)coc2c([C@@H]3O[C@H](CO)[C@@H](O)[C@H](O)[C@H]3O)c(O)ccc12 [Puerarin, 7,4′-dyhydroxy-8-β-D-glucosyl isoflavone] ? 19.7
